experiment-summary: Tmax in mouse at 25 mg/kg, po
Format: ADME, organism-based
Parameters: dose 25 mg/kg, route oral
measurement-setup: in vivo
measure-name: Tmax (h)
Report the figure in h without appending any unit label.

Requested read-out: Tmax. Entry: "CCS(=O)(=O)c1ccc(CC(=O)Nc2nc(-c3cccc(Cl)c3)c(C(=O)c3ccccc3Cl)s2)cc1"
1

* * *

experiment-summary: Drug concentration in mouse spleen at 25 mg/kg, po after 8 hrs
Assay type: ADME, organism-based
Design: dose 25 mg/kg, route oral
measurement-setup: read-out: Drug uptake
measure-name: concentration at 8 h
Form field: result (number plus unit)

Requested read-out: concentration at 8 h. Entry: "CCS(=O)(=O)c1ccc(CC(=O)Nc2nc(-c3cccc(Cl)c3)c(C(=O)c3ccccc3Cl)s2)cc1"
360 nM

* * *

assayed-system: UniProt:O75469
Sequence (O75469 whole entry): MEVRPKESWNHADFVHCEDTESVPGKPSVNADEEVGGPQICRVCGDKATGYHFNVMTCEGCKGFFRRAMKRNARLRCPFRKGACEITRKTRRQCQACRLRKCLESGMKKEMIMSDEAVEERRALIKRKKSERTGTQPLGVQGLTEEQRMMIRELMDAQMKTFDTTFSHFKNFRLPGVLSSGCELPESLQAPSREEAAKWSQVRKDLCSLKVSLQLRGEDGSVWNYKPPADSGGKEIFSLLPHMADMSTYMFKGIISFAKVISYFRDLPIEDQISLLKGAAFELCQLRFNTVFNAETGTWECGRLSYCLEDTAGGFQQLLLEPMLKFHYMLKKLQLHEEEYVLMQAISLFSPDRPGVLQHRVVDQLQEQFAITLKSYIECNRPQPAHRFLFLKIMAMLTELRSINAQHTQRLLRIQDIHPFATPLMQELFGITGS
experiment-summary: Agonist activity at human pregnane X receptor expressed in HEK293 cells by luciferase reporter gene assay relative to SR12813
Type: cell-based
measurement-setup: HEK293 cells expressing human pregnane X receptor, read-out: Efficacy
measure-name: Emax (%)
Report the figure in % without appending any unit label.

Requested read-out: Emax. Entry: "CCS(=O)(=O)c1ccc(CC(=O)Nc2nc(-c3cccc(Cl)c3)c(C(=O)c3ccccc3Cl)s2)cc1"
29

* * *

Parameter IC50: see the listing below.
Target chain: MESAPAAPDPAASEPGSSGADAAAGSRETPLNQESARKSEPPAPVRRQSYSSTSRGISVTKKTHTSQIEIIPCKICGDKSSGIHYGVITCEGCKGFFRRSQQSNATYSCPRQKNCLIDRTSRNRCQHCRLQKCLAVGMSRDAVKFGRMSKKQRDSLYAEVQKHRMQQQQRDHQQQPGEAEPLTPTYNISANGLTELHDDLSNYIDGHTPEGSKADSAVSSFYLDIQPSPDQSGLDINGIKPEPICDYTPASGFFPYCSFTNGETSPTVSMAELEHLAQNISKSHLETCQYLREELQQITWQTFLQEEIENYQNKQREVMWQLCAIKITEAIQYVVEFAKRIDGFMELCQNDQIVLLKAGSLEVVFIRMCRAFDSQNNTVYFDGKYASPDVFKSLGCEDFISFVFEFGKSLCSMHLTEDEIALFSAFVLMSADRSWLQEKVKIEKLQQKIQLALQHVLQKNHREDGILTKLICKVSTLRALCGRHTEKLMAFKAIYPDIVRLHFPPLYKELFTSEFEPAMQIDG

CCS(=O)(=O)c1ccc(CC(=O)Nc2nc(-c3ccccc3)c(C(=O)c3ccccc3)s2)cc1	> 5.01 µM

Turning now to a further molecule:
Requested read-out: IC50. Entry: "CCS(=O)(=O)c1ccc(CC(=O)Nc2nc(-c3cccc(Cl)c3)c(C(=O)c3ccccc3Cl)s2)cc1"
> 5.01 µM

* * *

experiment-summary: Drug concentration in mouse brain at 25 mg/kg, po after 8 hrs
Assay type: ADME, organism-based
Parameters: dose 25 mg/kg, route oral
measurement-setup: read-out: Drug uptake
measure-name: concentration at 8 h
Form field: result (number plus unit)

Requested read-out: concentration at 8 h. Entry: "CCS(=O)(=O)c1ccc(CC(=O)Nc2nc(-c3cccc(Cl)c3)c(C(=O)c3ccccc3Cl)s2)cc1"
0.01 µM

* * *

experiment-summary: Cmax in mouse at 25 mg/kg, po
Type: ADME, organism-based
Design: dose 25 mg/kg, route oral
measurement-setup: in vivo
measure-name: Cmax
Form field: result (number plus unit)

Requested read-out: Cmax. Entry: "CCS(=O)(=O)c1ccc(CC(=O)Nc2nc(-c3cccc(Cl)c3)c(C(=O)c3ccccc3Cl)s2)cc1"
23 µM
